Experiment: Antagonist activity at FITC-tagged […] integrin in human platelet rich plasma
assay_endpoint: pIC50
Give bare numbers, as −log10 of the molar value.

Quick check: pIC50 of O=C(O)CC(NC(=O)CCC(=O)Nc1ccc2c(c1)CNC2)c1ccccc1 (stereo unspecified) ?
6.07

----------
Molecular target: Integrin alpha-IIb/beta-3 (Homo sapiens, UniProt P05106+P08514)
Sequence (P05106 27-788 limits assumed): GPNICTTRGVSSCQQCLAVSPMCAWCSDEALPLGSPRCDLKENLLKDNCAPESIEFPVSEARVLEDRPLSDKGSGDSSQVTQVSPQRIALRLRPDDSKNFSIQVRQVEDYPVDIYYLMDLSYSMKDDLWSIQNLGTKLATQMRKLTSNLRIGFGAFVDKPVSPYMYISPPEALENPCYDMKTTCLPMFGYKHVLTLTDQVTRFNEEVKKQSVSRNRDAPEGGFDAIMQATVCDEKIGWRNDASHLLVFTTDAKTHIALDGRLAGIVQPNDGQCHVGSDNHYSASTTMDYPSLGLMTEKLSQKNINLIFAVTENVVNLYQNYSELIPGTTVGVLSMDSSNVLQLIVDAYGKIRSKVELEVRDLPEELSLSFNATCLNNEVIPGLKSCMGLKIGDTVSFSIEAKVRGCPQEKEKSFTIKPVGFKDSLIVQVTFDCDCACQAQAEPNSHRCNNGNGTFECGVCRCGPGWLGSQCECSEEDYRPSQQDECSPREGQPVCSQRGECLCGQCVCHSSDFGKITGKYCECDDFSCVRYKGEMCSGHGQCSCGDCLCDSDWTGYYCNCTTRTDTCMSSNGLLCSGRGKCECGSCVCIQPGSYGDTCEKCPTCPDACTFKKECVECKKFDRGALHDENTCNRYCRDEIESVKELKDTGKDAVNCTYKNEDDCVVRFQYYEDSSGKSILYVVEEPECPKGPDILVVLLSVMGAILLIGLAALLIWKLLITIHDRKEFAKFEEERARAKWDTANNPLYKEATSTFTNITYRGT
Sequence (P08514 32-887 limits assumed): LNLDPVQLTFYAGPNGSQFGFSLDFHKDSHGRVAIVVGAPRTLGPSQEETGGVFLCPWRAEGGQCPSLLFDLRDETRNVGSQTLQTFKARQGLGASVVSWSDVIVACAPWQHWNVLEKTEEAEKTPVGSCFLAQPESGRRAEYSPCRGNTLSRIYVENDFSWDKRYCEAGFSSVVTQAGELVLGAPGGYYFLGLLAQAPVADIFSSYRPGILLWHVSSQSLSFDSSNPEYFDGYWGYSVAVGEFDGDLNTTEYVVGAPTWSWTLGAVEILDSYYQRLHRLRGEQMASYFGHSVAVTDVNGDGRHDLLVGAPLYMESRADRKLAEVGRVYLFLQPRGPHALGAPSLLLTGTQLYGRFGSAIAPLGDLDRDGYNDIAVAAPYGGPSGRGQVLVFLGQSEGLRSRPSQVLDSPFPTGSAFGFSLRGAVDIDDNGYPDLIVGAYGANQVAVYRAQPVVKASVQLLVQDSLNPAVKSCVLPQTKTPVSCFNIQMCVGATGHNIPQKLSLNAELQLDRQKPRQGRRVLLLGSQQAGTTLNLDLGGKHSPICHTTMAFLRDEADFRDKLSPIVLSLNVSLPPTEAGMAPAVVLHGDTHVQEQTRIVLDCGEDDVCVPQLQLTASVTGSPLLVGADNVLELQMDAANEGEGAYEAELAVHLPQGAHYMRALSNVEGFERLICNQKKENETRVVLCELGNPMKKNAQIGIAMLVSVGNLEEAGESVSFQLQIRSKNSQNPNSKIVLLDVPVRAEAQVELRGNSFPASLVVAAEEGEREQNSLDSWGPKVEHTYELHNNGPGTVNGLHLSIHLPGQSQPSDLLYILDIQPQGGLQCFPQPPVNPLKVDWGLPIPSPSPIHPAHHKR
Sequence (P08514 891-1039 limits assumed): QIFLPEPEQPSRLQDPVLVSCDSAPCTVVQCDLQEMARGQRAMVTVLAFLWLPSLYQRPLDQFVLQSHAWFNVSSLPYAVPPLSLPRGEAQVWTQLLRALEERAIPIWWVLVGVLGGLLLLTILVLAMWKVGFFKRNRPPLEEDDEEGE
Experiment: Antagonist activity at FITC-tagged […] integrin in human platelet rich plasma
Assay type: functional, cell-free
For each record, write down the corresponding log10 of IC50.
Answers are given as log10 of IC50 in µM.

molecule	value_reported
O=C(O)CC(NC(=O)CCC(=O)Nc1ccc2c(c1)CNC2)c1ccc2c(c1)OCO2 (stereo not given)	-1.51

For every listed record, write down its log10 of IC50.
1. O=C(O)CC(NC(=O)CCC(=O)Nc1ccc2c(c1)CNCC2)c1cccc2ccccc12 (stereo not given)
2. COc1ccc(C(CC(=O)O)NC(=O)c2cccc(C(=O)Nc3ccc4c(c3)CNCC4)c2)cc1OC (stereo not given)
3. O=C(O)CC(NC(=O)CCC(=O)Nc1ccc2c(c1)CNCC2)c1ccccc1 (stereo not given)

1. 0.72
2. -1.94
3. -1.89

# batch: return log10 of IC50 for each of the 8 molecules below
1. O=C(O)CC(NC(=O)c1cccc(C(=O)Nc2ccc3c(c2)CNCC3)c1)c1ccccc1 (stereo not given)
2. O=C(O)CC(NC(=O)CCC(=O)Nc1ccc2c(c1)CNCC2)c1cccc(F)c1 (stereo not given)
3. COc1ccc(C(CC(=O)O)NC(=O)CCCC(=O)Nc2ccc3c(c2)CNCC3)cc1OC (stereo not given)
4. COc1ccc(C(CC(=O)O)NC(=O)c2cccc(C(=O)Nc3ccc4c(c3)CNCC4)c2)cc1 (stereo not given)
5. CC(C)Oc1ccc(C(CC(=O)O)NC(=O)CCC(=O)Nc2ccc3c(c2)CNCC3)cc1 (stereo not given)
6. COc1ccc(C(CC(=O)O)NC(=O)CCC(=O)Nc2ccc3c(c2)CNCC3)cc1OC (stereo not given)
7. COc1ccc(C(CC(=O)O)NC(=O)CCC(=O)Nc2ccc3c(c2)CNC3)cc1 (stereo not given)
8. COc1ccc(C(CC(=O)O)NC(=O)CCC(=O)Nc2ccc3c(c2)CNCC3)cc1 (stereo not given)

[-1.60, 1.00, -0.90, -1.77, -1.06, -1.19, -0.80, -0.51]

----------
Biological target: Integrin alpha-IIb/beta-3 (Homo sapiens, UniProt P05106+P08514)
Experiment: Antagonist activity at FITC-tagged […] integrin in human platelet rich plasma
Assay type: functional, cell-free
assay_endpoint: pIC50
One number for each entry, as −log10 of the molar value.

// worked examples, pIC50 included
compound	test_system	value_reported
O=C(O)CC(NC(=O)CCC(=O)Nc1ccc2c(c1)CNCC2)c1ccc(Cl)cc1 (stereo not drawn)	Integrin alpha-IIb/beta-3 (Homo sapiens, UniProt P05106+P08514)	5.70
Cc1ccc(C(CC(=O)O)NC(=O)CCC(=O)Nc2ccc3c(c2)CNCC3)cc1 (stereo not drawn)	Integrin alpha-IIb/beta-3 (Homo sapiens, UniProt P05106+P08514)	7.02

Note: attention shifts to another entry.
May I ask what pIC50 has been recorded for O=C(O)CC(NC(=O)CCCC(=O)Nc1ccc2c(c1)CNCC2)c1ccc2c(c1)OCO2 (stereo not drawn) ?
7.28
